Examples of compounds with documented IC50 follow.
assayed.target: RORc ligand binding domain (Homo sapiens, UniProt P51449)
Sequence (P51449 269-508 limits assumed): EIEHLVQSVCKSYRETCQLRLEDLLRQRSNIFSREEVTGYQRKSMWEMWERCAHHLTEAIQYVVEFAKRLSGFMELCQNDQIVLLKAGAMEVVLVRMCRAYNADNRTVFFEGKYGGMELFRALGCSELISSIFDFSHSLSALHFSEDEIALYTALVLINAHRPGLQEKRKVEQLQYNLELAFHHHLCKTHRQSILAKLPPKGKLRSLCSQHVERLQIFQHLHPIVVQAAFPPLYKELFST
Answer format: numeric, µM implied, no suffix.

Below: 3 compounds and their reported IC50.
# molecule.smiles, readout.value
data = [
    ("CC(C)CN(c1ccccc1Cl)S(=O)(=O)c1cccc(N2CCN(S(C)(=O)=O)CC2)c1", 0.528),
    ("CC(C)CN(Cc1ccccc1C(F)(F)F)S(=O)(=O)c1ccc(N2CCN(S(=O)(=O)N(C)C)CC2)cc1", 0.023),
    ("CC(C)CN(Cc1ccccc1C(F)(F)F)S(=O)(=O)c1ccc(N2CCN(S(C)(=O)=O)CC2)c(F)c1", 0.008),
]

## Input For the compound CC(C)CN(c1cccc(Cl)c1)S(=O)(=O)c1ccc(N2CCN(S(C)(=O)=O)CC2)c(F)c1 , what IC50 is on record?
## Output 0.036

###

assayed.target: RORc ligand binding domain (Homo sapiens)
Sequence (P51449 269-508 limits assumed): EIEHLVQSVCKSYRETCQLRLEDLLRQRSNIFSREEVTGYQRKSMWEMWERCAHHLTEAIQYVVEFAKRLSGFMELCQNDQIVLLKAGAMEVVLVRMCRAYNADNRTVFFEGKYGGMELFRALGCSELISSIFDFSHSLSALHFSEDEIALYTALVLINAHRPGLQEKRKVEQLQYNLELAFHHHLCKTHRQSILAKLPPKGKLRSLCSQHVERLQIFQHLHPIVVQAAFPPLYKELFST
Reported IC50 is given for each of the following compounds.
Answer shape: numeric part, then the unit.

## Input Observed IC50 on RORc ligand binding domain (Homo sapiens) for CC(C)CN([C@@H](C)c1ccccc1)S(=O)(=O)c1ccc(N2CCN(S(C)(=O)=O)CC2)cc1 [Compound 63] , please.
## Output 39 nM

## Input Another compound to look at: CC(C)CN(c1cccc(Cl)c1)S(=O)(=O)c1ccc(NC2CCN(C(N)=O)CC2)cc1 [Compound 36]
## Output 66 nM

## Input // same read-out, input: CC(C)CN(c1cccc(Cl)c1)S(=O)(=O)c1ccc(O[C@H]2CCCN(S(C)(=O)=O)C2)cc1 [Compound 43]
## Output 281 nM
